Every entry's value here was drawn from paper PMC5557574.

assay: Pharmacokinetics in septic shock patients, two-compartment population pharmacokinetic model; assay type: in vivo, human; details: human, in vivo, intravenous, 1.25 ng/kg.min, N=10, modelled, mean (SD), SD, read-out: Steady state volume
Positions of bridges follow the written chain, without caps; N, C: chain ends. Non-standard residues stand in square brackets, D forms with d. Residues, ends and D or L forms follow the SMILES beside them. Orn(iPr) = CC(C)NCCC[C@H](N)C(=O)O; Aad = N[C@@H](CCCC(=O)O)C(=O)O
endpoint name: Vd (L)
One number for each entry, in L.

Sample CC[C@H](C)[C@@H]1NC(=O)[C@H](Cc2ccccc2)NC(=O)[C@@H](N)CSSC[C@@H](C(=O)N2CCC[C@H]2C(=O)N[C@@H](CCCNC(C)C)C(=O)NCC(N)=O)NC(=O)[C@H](CC(N)=O)NC(=O)[C@H](CCCC(N)=O)NC1=O [selepressin] (H-CFI[Aad](NH2)NCP[Orn(iPr)]G-NH2; disulfide 1-6) ; Vd observed: 25.5
